Molecular target: T1, full-length human Regnase-1 with a FLAG tag on the N-terminal side and a biotin ligase BirA recognition … (human, UniProt Q5D1E8 1-599, biotinylated where required ; Biotinylated at the BirA recognition sequence where required. That sequence is not in the letters.)
T1 construct: Expressed in Expi293 cells, purified on FLAG M2 agarose and by gel filtration; also called full-length Regnase-1; human full-length Regnase-1
T1 sequence: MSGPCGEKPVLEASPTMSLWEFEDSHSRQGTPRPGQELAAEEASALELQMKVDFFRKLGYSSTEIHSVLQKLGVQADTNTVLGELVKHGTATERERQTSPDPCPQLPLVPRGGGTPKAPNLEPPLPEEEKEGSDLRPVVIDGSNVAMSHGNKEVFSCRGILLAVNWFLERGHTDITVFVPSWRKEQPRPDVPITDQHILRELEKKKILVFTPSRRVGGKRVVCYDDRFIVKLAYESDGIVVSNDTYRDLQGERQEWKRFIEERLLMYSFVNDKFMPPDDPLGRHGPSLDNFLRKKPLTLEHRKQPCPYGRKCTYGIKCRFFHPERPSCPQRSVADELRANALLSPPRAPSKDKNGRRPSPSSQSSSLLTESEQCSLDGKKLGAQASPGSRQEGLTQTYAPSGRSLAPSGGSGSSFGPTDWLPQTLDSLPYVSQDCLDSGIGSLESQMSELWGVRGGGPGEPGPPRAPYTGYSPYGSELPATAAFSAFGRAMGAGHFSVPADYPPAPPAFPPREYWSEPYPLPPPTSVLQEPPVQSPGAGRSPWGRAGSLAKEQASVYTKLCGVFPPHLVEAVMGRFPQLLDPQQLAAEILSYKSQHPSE
Experiment: AlphaScreen, blocks IKKβ binding to FL_Reg1
pIC50: −log10 of the molar value. Positions of bridges follow the written chain, without caps; N, C: chain ends. Non-standard residues stand in square brackets, D forms with d. No end group written: not given here. NMeA = CN[C@@H](C)C(=O)O; dNMeA = CN[C@H](C)C(=O)O
Each entry below carries its reported pIC50.

# binder, resultQualifier, pIC50
rows = [
    ("[dNMeA]PNSSWFKIWD (lactam N-11) [PP6]", "=", 4.38),
    ("[NMeA]GYANSWYNIWD (lactam N-12) [PP2]", "=", 4.45),
    ("[NMeA]TSWYKVNWGQD (lactam N-12) [PP1]", "<", 4.21),
    ("[NMeA]RFGVWSWIYPD (lactam N-12) [PP14]", "=", 4.70),
    ("[dNMeA]KHASAWYRIWD (lactam N-12) [PP3]", "=", 5.08),
    ("[NMeA]KFAQFRWIYPD (lactam N-12) [PP11]", "<", 4.21),
    ("[dNMeA]PTSSWYKIWD (lactam N-11) [PP23]", "=", 4.38),
    ("[NMeA]DIWFDYWDYD (lactam N-11) [PP18]", ">", 7.22),
    ("[NMeA]NSWYINIWGHD (lactam N-12) [PP15]", "=", 4.47),
    ("[dNMeA]TYGHSSWYKIWD (lactam N-13) [PP9]", "=", 4.97),
    ("[NMeA]NSWYKIWGLD (lactam N-11) [PP21]", "=", 4.68),
    ("[NMeA]NFSNSWYNIWD (lactam N-12) [PP16]", "<", 4.21),
    ("[NMeA]KFWIHHSFED (lactam N-11) [PP20]", "<", 4.21),
    ("[dNMeA]EDTPEDDHD (lactam N-10) [PP25]", "<", 4.21),
    ("[NMeA]DIWFDYWDWD (lactam N-11) [PP17]", ">", 7.22),
    ("[NMeA]RYAVYQWIYPD (lactam N-12) [PP12]", "<", 4.21),
]
